SYSTEM: rat B1R (Rattus norvegicus, UniProt P97583)
Construct: expressed in transfected cells; host or cells: CHO K1 cells
Sequence (P97583 whole entry): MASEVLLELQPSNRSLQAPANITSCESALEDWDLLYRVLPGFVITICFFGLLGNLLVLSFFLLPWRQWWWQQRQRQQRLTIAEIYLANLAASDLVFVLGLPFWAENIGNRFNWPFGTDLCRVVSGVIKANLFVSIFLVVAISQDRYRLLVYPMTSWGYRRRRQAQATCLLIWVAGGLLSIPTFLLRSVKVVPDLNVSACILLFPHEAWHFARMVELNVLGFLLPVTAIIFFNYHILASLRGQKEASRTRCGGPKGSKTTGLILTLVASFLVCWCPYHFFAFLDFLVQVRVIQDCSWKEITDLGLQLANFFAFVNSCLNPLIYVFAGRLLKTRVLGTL
ASSAY_NAME: FLIPR Ca2+ functional study on bradykinin receptor 1 (rB1R CHO K1 cells)
Assay type: cell-based
RECORDED_CONDITIONS: CHO-K1, % inhibition rat B1R at 10 μM, read-out: % inh. (rat B1R) 10 μM
READOUT_KIND: inhibition at 10 µM (%)
Response body: numeric value in %, unit text excluded.

Worked examples, 6 molecules total:
[
  {
    "MOLECULE": "CCCCC1(N(C)C)CCN(c2ccnc(OCCN(C)S(=O)(=O)c3c(C)cc(OC)cc3C)n2)CC1 [G_CC-089]",
    "inhibition at 10 µM [%]": 93
  },
  {
    "MOLECULE": "COc1cc(C)c(S(=O)(=O)N(CCOc2nccc(N3CCc4cc(CN5CCC5)ccc4C3)n2)C2CC2)c(C)c1 [Example G-013]",
    "inhibition at 10 µM [%]": 102
  },
  {
    "MOLECULE": "COc1cc(C)c(S(=O)(=O)N2CCCCC2COc2ccnc(N(C)CCN3CCC(Oc4ccncc4)CC3)n2)c(C)c1 (stereo not shown) [H_CC-049]",
    "inhibition at 10 µM [%]": 94
  },
  {
    "MOLECULE": "COc1cc(C)c(S(=O)(=O)N(CCOc2nccc(N3CCC(Oc4ccncc4)CC3)n2)C2CC2)c(C)c1 [Example G-012]",
    "inhibition at 10 µM [%]": 97
  },
  {
    "MOLECULE": "COc1cc(C)c(S(=O)(=O)N(C)C(COc2ccnc(N3CCC4(CCN(c5ccncc5)CC4)CC3)n2)c2ccccc2)c(C)c1 (stereo not shown) [H_CC-037]",
    "inhibition at 10 µM [%]": 102
  },
  {
    "MOLECULE": "COc1cc(C)c(S(=O)(=O)N2CC(Oc3nccc(N4CCC5(CCN(c6ccncc6)CC5)CC4)n3)C2)c(C)c1 [Example G-018]",
    "inhibition at 10 µM [%]": 93
  }
]

Read the next record carefully.
Query COc1cc(C)c(S(=O)(=O)N2CCCCC2COc2ccnc(N3CCC4(CCN(Cc5ccc(F)cc5)C4=O)CC3)n2)c(C)c1 (stereo not shown) [H_CC-030] yields inhibition at 10 µM of 49
